# study_system: Beta-adrenergic receptor kinase 1 (Homo sapiens) (UniProt P25098)
# Sequence (P25098 whole entry, looked up): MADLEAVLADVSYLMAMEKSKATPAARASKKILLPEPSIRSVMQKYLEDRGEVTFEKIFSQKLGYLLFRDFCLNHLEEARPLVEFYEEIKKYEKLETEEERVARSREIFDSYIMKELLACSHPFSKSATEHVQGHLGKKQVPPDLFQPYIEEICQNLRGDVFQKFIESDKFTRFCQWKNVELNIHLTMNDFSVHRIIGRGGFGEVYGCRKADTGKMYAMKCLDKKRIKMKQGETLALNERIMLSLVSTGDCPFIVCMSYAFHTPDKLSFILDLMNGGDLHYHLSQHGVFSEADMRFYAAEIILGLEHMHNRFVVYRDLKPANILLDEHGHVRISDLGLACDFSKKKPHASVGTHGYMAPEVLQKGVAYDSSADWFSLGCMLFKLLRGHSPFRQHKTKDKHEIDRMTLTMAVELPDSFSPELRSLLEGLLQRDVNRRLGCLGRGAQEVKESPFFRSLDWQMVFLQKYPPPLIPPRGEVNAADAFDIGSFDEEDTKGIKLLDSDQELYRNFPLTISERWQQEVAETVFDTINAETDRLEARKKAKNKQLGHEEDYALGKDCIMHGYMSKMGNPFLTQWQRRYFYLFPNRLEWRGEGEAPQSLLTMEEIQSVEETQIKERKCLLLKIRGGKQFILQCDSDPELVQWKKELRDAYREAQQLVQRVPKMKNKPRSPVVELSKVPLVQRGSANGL
# protocol_details: direct GRK2 binders by thermal shift, late-stage follow-up, orthogonal assay for GRK2 aptamer-displacement inhibitor project, biophysical, Thermofluor, set 2 (AID 588468)
# condition: purified GRK2 thermal shift, ANS fluorescence; at 200 µM; active compounds read high
Activity calls are given as the source filed them.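 Rule for the calls: active = compounds whose thermal stabilization response of the kinase is above zero; inactive = the rest.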
observed_property: thermal stabilization response

Known results for compounds:
compound	study_system	thermal stabilization response
O=C(CN1CCc2ccccc21)NC(=O)NCc1ccccc1	Beta-adrenergic receptor kinase 1 (Homo sapiens) (UniProt P25098)	25.7%
O=C(CSc1nc2ccccc2c(=O)n1-c1ccccc1)NC(=O)CN1CCCC1=O	Beta-adrenergic receptor kinase 1 (Homo sapiens) (UniProt P25098)	-62% (inactive)
Cc1ccc(CCNC(=O)CCS(=O)(=O)c2ccc(Br)cc2)cc1	Beta-adrenergic receptor kinase 1 (Homo sapiens) (UniProt P25098)	1.04%
NS(=O)(=O)c1ccc(CCNC(=O)CCS(=O)(=O)c2ccc(Br)cc2)cc1	Beta-adrenergic receptor kinase 1 (Homo sapiens) (UniProt P25098)	-107% (inactive)

In: State, in one line, measured thermal stabilization response of `O=C(O)Cc1ccc(-n2cccc2)cc1`
Out: -127% (inactive)

In: Please report the measured thermal stabilization response for Cc1cc2ccccc2n1CCNC(=O)C(C)Oc1ccccc1 (stereo unspecified)
Out: -116% (inactive)

In: Return thermal stabilization response (reported value) for this compound: `Cc1ccccc1NC(=O)CCS(=O)(=O)c1ccc(Br)s1`
Out: 116%

----------
# study_system: Beta-adrenergic receptor kinase 1 (Homo sapiens)
# protocol_details: direct GRK2 binders by thermal shift, late-stage follow-up, orthogonal assay for GRK2 aptamer-displacement inhibitor project, biophysical, Thermofluor, set 2 (AID 588468)
# condition: purified GRK2 thermal shift, ANS fluorescence; at 200 µM; active compounds read high
observed_property: thermal stabilization response (%)
Report only the number, with the unit % understood.

Below, each entry is followed by its recorded thermal stabilization response result.
compound_string	study_system	thermal stabilization response / %
COC(=O)c1ccccc1NC(=O)CCS(=O)(=O)c1ccc(Br)s1	Beta-adrenergic receptor kinase 1 (Homo sapiens)	-184
O=C(CCS(=O)(=O)c1ccc(Br)cc1)Nc1ccc(Br)cc1F	Beta-adrenergic receptor kinase 1 (Homo sapiens)	-34.7

In: Consider the molecule `O=C(CCS(=O)(=O)c1ccc(Br)s1)Nc1ccccc1Br` . State its measured thermal stabilization response.
Out: -73.1

In: Tell me its thermal stabilization response given `COc1ccc(Cl)cc1NC(=O)CCS(=O)(=O)c1ccc(Br)cc1` as the entry.
Out: -601

In: Give thermal stabilization response for `CCOc1ccccc1NC(=O)CCS(=O)(=O)c1ccc(Br)cc1`
Out: -16.1

In: Determine its reported thermal stabilization response: `COC(=O)c1ccc(NC(=O)CCS(=O)(=O)c2ccc(Br)cc2)cc1`
Out: -62.8

----------
# study_system: Beta-adrenergic receptor kinase 1 (Homo sapiens)
# protocol_details: direct GRK2 binders by thermal shift, late-stage follow-up, orthogonal assay for GRK2 aptamer-displacement inhibitor project, biophysical, Thermofluor, set 2 (AID 588468)
# condition: purified GRK2 thermal shift, ANS fluorescence; at 200 µM; active compounds read high
Each record here notes measured thermal stabilization response.
Report the value in % with no unit label.

compound_string	unit_of_measure	thermal stabilization response
COc1ccc([N+](=O)[O-])cc1NC(=O)CCS(=O)(=O)c1ccc(Br)cc1	%	-85.1
Cc1cccc(CCNC(=O)CCS(=O)(=O)c2ccc(Br)cc2)c1	%	44.5
COc1ccc(CCNC(=O)CCS(=O)(=O)c2ccc(Br)cc2)cc1OC	%	-74.6

Here is the next item to consider.
In: Using the record for `COc1ccc(NC(=O)CCS(=O)(=O)c2ccc(Br)s2)cc1` , state its measured thermal stabilization response.
Out: -93.6
